The measurements presented in this section are drawn from patent US12691070B2.

experiment: RNA encapsulation efficacy by Quant-IT Ribogreen kit; format: physicochemical; conditions: LNP with cirRNA (SEQ ID NO: 1)
OBSERVABLE: Encapsulation Efficiency % (%)

INSERT INTO assay_data (compound, observable, numeric_readout) VALUES
  ('CCCCC/C=C\C/C=C\CCCCCCCCN(CCCCCC(=O)OCC(CCCCCCCC)CCCCCCCCCC)CCOC(=O)NCCN1CCN(C)CC1 (stereo not drawn) [Lipid 78]', 'Encapsulation Efficiency %', 100),
  ('CCCCC/C=C\C/C=C\CCCCCCCCN(CCCCCCCC/C=C\C/C=C\CCCCC)CCOC(=O)NCc1ccncc1 [Lipid 35]', 'Encapsulation Efficiency %', 71),
  ('CCCCCCCCCC(=O)OCCCCCCCN(CCCCCCCCOC(=O)C(CCCCCC)CCCCCCCC)CCOC(=O)NCc1ncc[nH]1 (stereo not drawn) [Lipid 198]', 'Encapsulation Efficiency %', 94),
  ('CCCCCCCCCCCOC(=O)CCCCCN(CCCCCCCCOC(=O)C(CCCCCC)CCCCCCCC)CCOC(=O)NCCCN(C)C (stereo not drawn) [Lipid 224]', 'Encapsulation Efficiency %', 97),
  ('CCCCCCCCC(CCCCCCCC)OC(=O)CCCCCCCN(CCCCCCCCOC(=O)C(CCCCCC)CCCCCCCC)CCCOC(=O)NCc1ncc[nH]1 (stereo not drawn) [Lipid 345]', 'Encapsulation Efficiency %', 92),
  ('CCCCCCCCC(CCCCCCCC)OC(=O)CCCCCCCN(CCCCCCCCOC(=O)C(CCCCCC)CCCCCCCC)CCCOC(=O)NCCN1CCCCC1 (stereo not drawn) [Lipid 351]', 'Encapsulation Efficiency %', 95),
  ('CCCCCCCCC(CCCCCC)C(=O)OCCCCCCCCN(CCCCCCCCOC(=O)C(CCCCCC)CCCCCCCC)CCCOC(=O)NCCN1CCN(C)CC1 (stereo not drawn) [Lipid 377]', 'Encapsulation Efficiency %', 93),
  ('CCCCCCCCCC(=O)OCCCCCCCN(CCCCCCCCOC(=O)C(CCCCCC)CCCCCCCC)CCOC(=O)NCCN1CCCCC1 (stereo not drawn) [Lipid 196]', 'Encapsulation Efficiency %', 93),
  ('CCCCCCCC/C=C\CCCCCCCCN(CCCCCCCCOC(=O)C(CCCCCC)CCCCCCCC)CCOC(=O)NCCCN(C)C (stereo not drawn) [Lipid 216]', 'Encapsulation Efficiency %', 96),
  ('CCCCC/C=C\C/C=C\CCCCCCCCN(CCCCCCCC/C=C\C/C=C\CCCCC)CCOC(=O)NCCN1CCOCC1 [Lipid 36]', 'Encapsulation Efficiency %', 96),
  ('CCCCCCCCC(CCCCCCCC)OC(=O)CCCCCCCN(CCCCCCCCOC(=O)C(CCCCCC)CCCCCCCC)CCOC(=O)NCCN(C)C (stereo not drawn) [Lipid 66]', 'Encapsulation Efficiency %', 96),
  ('CCCCCCCCCC(=O)OCCCCCCCN(CCCCCCCCOC(=O)C(CCCCCC)CCCCCCCC)CCOC(=O)NCCN1CCN(C)CC1 (stereo not drawn) [Lipid 200]', 'Encapsulation Efficiency %', 95),
  ('CCCCCCCCC(CCCCCCCC)OC(=O)CCCCCCCN(CCCCCCCCOC(=O)C(CCCCCC)CCCCCCCC)CCCOC(=O)NCCc1ncc[nH]1 (stereo not drawn) [Lipid 349]', 'Encapsulation Efficiency %', 97),
  ('CCCCCCCCCC(=O)OCCCCCCCN(CCCCCCCCOC(=O)C(CCCCCC)CCCCCCCC)CCCOC(=O)NCCN1CCN(C)CC1 (stereo not drawn) [Lipid 362]', 'Encapsulation Efficiency %', 89),
  ('CCCCC/C=C\C/C=C\CCCCCCCCN(CCCCCCCC/C=C\CCCCCCCC)CCOC(=O)NCCN(C)C [Lipid 67]', 'Encapsulation Efficiency %', 99),
  ('CCCCC/C=C\C/C=C\CCCCCCCCN(CCCCCCCC(=O)OC(CCCCCCCC)CCCCCCCC)CCCOC(=O)NCCCN(CC)CC [Lipid 272]', 'Encapsulation Efficiency %', 95),
  ('CCCCC/C=C\C/C=C\CCCCCCCCN(CCCCCCCC/C=C\C/C=C\CCCCC)CCOC(=O)NCCN(C)C [Lipid 41]', 'Encapsulation Efficiency %', 91),
  ('CCCCCCCCCC(=O)OCCCCCCCN(CCCCCCCCOC(=O)C(CCCCCC)CCCCCCCC)CCCOC(=O)NCCCN(C)C (stereo not drawn) [Lipid 355]', 'Encapsulation Efficiency %', 90),
  ('CCCCC/C=C\CCOC(=O)CCCCCCCN(CCCCCCCC(=O)OCC/C=C\CCCCC)CCOC(=O)CCCN(C)C [Lipid C, reference compound]', 'Encapsulation Efficiency %', 74),
  ('CCCCC/C=C\C/C=C\CCCCCCCCN(CCCCCCCC/C=C\C/C=C\CCCCC)CCOC(=O)[C@@H](N)Cc1c[nH]cn1 [Lipid B, reference compound]', 'Encapsulation Efficiency %', 88),
  ('CCCCC/C=C\C/C=C\CCCCCCCCN(CCCCCCCC/C=C\C/C=C\CCCCC)CCOC(=O)NCc1ncc[nH]1 [Lipid 39]', 'Encapsulation Efficiency %', 91),
  ('CCCCCCCCCC(=O)OCCCCCCCCN(CCCCCCCCOC(=O)CCCCCCCCC)CCOC(=O)NCCN1CCCC1 [Lipid 209]', 'Encapsulation Efficiency %', 93),
  ('CCCCCCCCCCC(CCCCCCCC)COC(=O)CCCCCN(CCCCCCCCOC(=O)C(CCCCCC)CCCCCCCC)CCOC(=O)NCCN(C)C (stereo not drawn) [Lipid 51]', 'Encapsulation Efficiency %', 97),
  ('CCCCCCCCC(CCCCCC)C(=O)OCCCCCCCCN(CCCCCCCCOC(=O)C(CCCCCC)CCCCCCCC)CCCOC(=O)NCc1ncc[nH]1 (stereo not drawn) [Lipid 375]', 'Encapsulation Efficiency %', 89),
  ('CCCCCCCCCCCOC(=O)CCCCCN(CCCCCCCCOC(=O)C(CCCCCC)CCCCCCCC)CCOC(=O)NCCN(C)C (stereo not drawn) [Lipid 220]', 'Encapsulation Efficiency %', 96),
  ('CCCCC/C=C\C/C=C\CCCCCCCCN(CCCCCCCC(=O)OC(CCCCCCCC)CCCCCCCC)CCOC(=O)NCCN(C)C [Lipid 129]', 'Encapsulation Efficiency %', 96),
  ('CCCCCCCCCCC(CCCCCCCC)COC(=O)CCCCCN(CCCCCCCCOC(=O)C(CCCCCC)CCCCCCCC)CCCOC(=O)NCCN(C)C (stereo not drawn) [Lipid 364]', 'Encapsulation Efficiency %', 89);
